test system: male spontaneously hypertensive rats; experiment: Decrease in systolic blood pressure in spontaneously hypertensive rats after intravenous bolus injection, indirect (tail-cuff) method; assay type: in vivo, rat; details: dose 10 mg/kg i.v. bolus, 0.5 hour after administration
Structures can show the parent of a compound that is named as a salt.
MEASURE NAME: Decrease in systolic blood pressure (mmHg) time after administration (hour) 0.5

{"COMPOUND": "CCOC(=O)C(CCCN1CCC(=C2c3ccccc3C=Cc3ccccc32)CC1)C1CCCCC1.Cl (centres unmarked)", "EXPERIMENTAL TARGET": "male spontaneously hypertensive rats", "RESULT": "−148 mmHg"}
{"COMPOUND": "Cl.O=[N+]([O-])c1cccc(C=CCN2CCC(=C3c4ccccc4C=Cc4ccccc43)CC2)c1", "EXPERIMENTAL TARGET": "male spontaneously hypertensive rats", "RESULT": "−138 mmHg"}
{"COMPOUND": "Cl.O=[N+]([O-])c1ccc(CCCCN2CCC(=C3c4ccccc4C=Cc4ccccc43)CC2)cc1", "EXPERIMENTAL TARGET": "male spontaneously hypertensive rats", "RESULT": "−145 mmHg"}
{"COMPOUND": "COc1ccc(CCCN2CCC(=C3c4ccccc4C=Cc4ccccc43)CC2)c(OC)c1.Cl.Cl", "EXPERIMENTAL TARGET": "male spontaneously hypertensive rats", "RESULT": "−125 mmHg"}
{"COMPOUND": "COc1ccc(CN2CCC(=C3c4ccccc4C=Cc4ccccc43)CC2)cc1OC.Cl", "EXPERIMENTAL TARGET": "male spontaneously hypertensive rats", "RESULT": "−8 mmHg"}
{"COMPOUND": "Cl.c1ccc2c(c1)Oc1ccccc1C2=C1CCN(CCCCC2CCCCC2)CC1", "EXPERIMENTAL TARGET": "male spontaneously hypertensive rats", "RESULT": "−56 mmHg"}
{"COMPOUND": "CCCCCCCCCCCCN1CCC(=C2c3ccccc3C=Cc3ccccc32)CC1.Cl", "EXPERIMENTAL TARGET": "male spontaneously hypertensive rats", "RESULT": "−76 mmHg"}
{"COMPOUND": "C1=Cc2ccccc2C(=C2CCN(CCCCN3CCCCC3)CC2)c2ccccc21 [Example 209, hydrochloride]", "EXPERIMENTAL TARGET": "male spontaneously hypertensive rats", "RESULT": "−49 mmHg"}

* * *

Parameter: Decrease in systolic blood pressure (mmHg) time after administration (hour) 0.5. Scope: all listed entries.
test system: male spontaneously hypertensive rats; assay: Decrease in systolic blood pressure in spontaneously hypertensive rats after intravenous bolus injection, indirect (tail-cuff) method; format: in vivo, rat; settings: dose 10 mg/kg i.v. bolus, 0.5 hour after administration
MEASURE NAME: Decrease in systolic blood pressure (mmHg) time after administration (hour) 0.5

{"SMILES CODE": "Cl.c1ccc2c(c1)Sc1ccccc1C2=C1CCN(CCCCC2CCCCC2)CC1", "RECORDED NUMBER": "−11"}
{"SMILES CODE": "COc1cccc(CN2CCC(=C3c4ccccc4CCc4ccccc43)CC2)c1.Cl", "RECORDED NUMBER": "−16"}
{"SMILES CODE": "C1=Cc2ccccc2C(=C2CCN(CCCCCCCC3CCCCC3)CC2)c2ccccc21.Cl", "RECORDED NUMBER": "−131"}
